// values below are reported IC50, RGA 1
Target: T1, murine IL-11 (mouse, UniProt P47873 22-199)
T1 sequence: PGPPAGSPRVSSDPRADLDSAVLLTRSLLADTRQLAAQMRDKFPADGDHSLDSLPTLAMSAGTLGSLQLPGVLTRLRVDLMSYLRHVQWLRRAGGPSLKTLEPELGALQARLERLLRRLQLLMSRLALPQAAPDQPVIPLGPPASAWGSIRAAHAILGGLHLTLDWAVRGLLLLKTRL
Test: cell-based or functional assay
A complete answer gives the number and then names the unit.

Some solved entries appear below for comparison.
binder	measureName	testValue
TPP-31298 (antibody, IgG4, V domains shown) VH: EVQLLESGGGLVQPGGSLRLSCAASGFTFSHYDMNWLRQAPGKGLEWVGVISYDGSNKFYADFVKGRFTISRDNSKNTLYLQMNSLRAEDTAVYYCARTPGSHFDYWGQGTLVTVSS VL: QSVLTQPPSASGTPGQRVTISCSGSSSNIGNNAVNWYQQLPGTAPKLLIYYDDLLPSGVPDRFSGSKSGTSASLAISGLRSEDEADYYCSAWDDSLSGVVFGGGTKLTVL	IC50, RGA 1	21 nM
TPP-31304 (antibody, IgG4, V domains shown) VH: EVQLLESGGGLVQPGGSLRLSCAASGFTFSHYDMNWLRQAPGKGLEWVGVISYDASNKFYADFVKGRFTISRDNSKNTLYLQMNSLRAEDTAVYYCARTPGSHFDYWGQGTLVTVSS VL: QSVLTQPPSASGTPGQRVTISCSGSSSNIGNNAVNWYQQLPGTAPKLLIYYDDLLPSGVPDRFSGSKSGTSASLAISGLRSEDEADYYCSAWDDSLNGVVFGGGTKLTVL	IC50, RGA 1	42 nM

Shifting focus to the binder that follows.
Qu. I am curious: what IC50, RGA 1 value has been reported for TPP-31302 (antibody, IgG4, V domains shown) VH: EVQLLESGGGLVQPGGSLRLSCAASGFTFSHYDMNWLRQAPGKGLEWVGVISYEGSNKFYADFVKGRFTISRDNSKNTLYLQMNSLRAEDTAVYYCARTPGSHFDYWGQGTLVTVSS VL: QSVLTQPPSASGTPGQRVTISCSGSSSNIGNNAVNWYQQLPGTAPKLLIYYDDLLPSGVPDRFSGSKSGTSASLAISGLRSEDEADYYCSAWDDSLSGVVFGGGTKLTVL ?
Ans. 3.49 nM
